Target: glucocorticoid receptor (Homo sapiens, UniProt P04150)
Construct: endogenous in cells; ATCC cat
Assay: Hep G2 TAT IC50: inhibition of dexamethasone-induced TAT in HepG2 cells (384 well)

{"compound": "Cc1cc2c(cnn2-c2ccc(F)cc2)cc1C1CN(S(=O)(=O)N2CCOCC2)CCN1CC1CC(F)(F)C1 (single isomer, unassigned) [Example 179]", "units_symbol": "µM", "IC50": 2.02}
{"compound": "Cc1nc(S(=O)(=O)N2CCN(CC3CC(C)(C)C3)C(c3cc4cnn(-c5ccc(F)cc5)c4cc3C)C2)cs1 (single isomer, unassigned) [Example 185]", "units_symbol": "µM", "IC50": 1.22}
{"compound": "Cc1cc2c(cnn2-c2ccc(F)cc2)cc1C1CN(S(=O)(=O)c2cnn(C)n2)CCCN1CCC(F)(F)F (stereo not drawn) [Example 173]", "units_symbol": "µM", "IC50": 2.75}
{"compound": "Cc1cc2c(cnn2-c2cc(C)c(=O)n(C)c2)cc1C1CN(S(=O)(=O)N(C)C)CCN1CCC(F)(F)F (stereo not drawn) [Example 196]", "units_symbol": "µM", "IC50": 0.284}
{"compound": "Cc1cc2c(cnn2-c2cc(C)c(=O)n(C)c2)cc1C1CN(S(=O)(=O)c2ccccn2)CCN1CCC(F)(F)F (stereo not drawn) [Example 195]", "units_symbol": "µM", "IC50": 0.253}
{"compound": "Cc1cccc(-n2ncc3cc(C4CN(S(=O)(=O)c5cnn(C)n5)CCN4CCC(F)(F)F)c(C)cc32)c1 (stereo not drawn) [Example 200]", "units_symbol": "µM", "IC50": 4.01}

---

Target: glucocorticoid receptor (Homo sapiens, UniProt P04150)
Construct: endogenous in cells; ATCC cat
Experiment: Hep G2 TAT Ki: inhibition of dexamethasone-induced TAT in HepG2 cells (96 well)
Details: challenge of 100 nM dexamethasone, IC50 converted to Ki by Cheng and Prusoff equation
Mark rule met only when Ki stays strictly below 60 nM. Values equal to the cut-off are rule not met.

{"molecule": "CCCS(=O)(=O)N1CCN(CC(C)C)C(c2cc3cnn(-c4ccc(F)cc4)c3cc2C)C1 (single isomer, unassigned) [Example 49]", "category_label": "rule met"}
{"molecule": "COCCn1cc(S(=O)(=O)N2CCN(CC(C)C)C(c3cc4cnn(-c5ccc(F)cc5)c4cc3C)C2)cn1 (stereo not drawn) [Example 9]", "category_label": "rule not met"}
{"molecule": "Cc1cc2c(cnn2-c2ccc(F)cc2)cc1C1CN(S(=O)(=O)c2cnn(C)n2)CCN1C1CCC1 (single isomer, unassigned) [Example 25]", "category_label": "rule not met"}
{"molecule": "Cc1cc2c(cnn2-c2ccc(F)cc2)cc1C1CN(S(=O)(=O)CC(C)C)CCN1CC(C)C (single isomer, unassigned) [Example 52]", "category_label": "rule met"}
{"molecule": "Cc1cc2c(cnn2-c2ccc(F)cc2)cc1C1CN(S(=O)(=O)c2cnccc2C)CCN1CC(C)C(F)(F)F (single isomer, unassigned) [Example 149]", "category_label": "rule met"}
{"molecule": "Cc1cc2c(cnn2-c2ccc(F)cc2)cc1C1CN(S(=O)(=O)c2cnn(C)n2)CCN1Cc1ccon1 (single isomer, unassigned) [Example 72]", "category_label": "rule not met"}

---

Biological target: glucocorticoid receptor (Homo sapiens, UniProt P04150)
Construct: endogenous in cells; ATCC cat
Sequence (P04150 1-777): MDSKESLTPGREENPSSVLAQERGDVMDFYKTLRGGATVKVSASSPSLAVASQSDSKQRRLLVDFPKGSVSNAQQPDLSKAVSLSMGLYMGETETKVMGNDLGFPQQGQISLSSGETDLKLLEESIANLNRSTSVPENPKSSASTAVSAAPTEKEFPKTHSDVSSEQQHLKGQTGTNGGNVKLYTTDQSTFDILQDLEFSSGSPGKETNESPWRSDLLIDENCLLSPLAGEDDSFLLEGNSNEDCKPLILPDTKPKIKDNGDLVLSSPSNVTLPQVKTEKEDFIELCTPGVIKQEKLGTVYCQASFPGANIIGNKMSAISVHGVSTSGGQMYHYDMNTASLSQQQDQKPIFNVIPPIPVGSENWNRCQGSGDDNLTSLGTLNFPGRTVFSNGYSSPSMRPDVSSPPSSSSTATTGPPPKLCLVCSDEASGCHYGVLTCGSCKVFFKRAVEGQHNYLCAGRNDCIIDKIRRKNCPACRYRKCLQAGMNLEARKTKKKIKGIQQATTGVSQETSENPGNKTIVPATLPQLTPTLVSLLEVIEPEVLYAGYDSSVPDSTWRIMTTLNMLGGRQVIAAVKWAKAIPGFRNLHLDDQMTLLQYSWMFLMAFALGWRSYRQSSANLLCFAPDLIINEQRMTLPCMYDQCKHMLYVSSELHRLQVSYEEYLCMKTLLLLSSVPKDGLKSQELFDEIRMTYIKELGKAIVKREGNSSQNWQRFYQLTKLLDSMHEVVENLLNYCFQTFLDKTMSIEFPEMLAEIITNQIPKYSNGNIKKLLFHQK
Assay: Hep G2 TAT Ki: inhibition of dexamethasone-induced TAT in HepG2 cells (96 well)
Conditions: challenge of 100 nM dexamethasone, IC50 converted to Ki by Cheng and Prusoff equation
pKi: −log10 of the molar value.
Short version: pKi at least 7 is y, less is n.

{"compound": "Cc1cc2c(cnn2-c2ccc(F)cc2)cc1C1CN(S(=O)(=O)c2cnn(C)n2)CCN1CC1CC(=O)N(C)C1 (single isomer, unassigned)", "category_label": "n"}
{"compound": "COc1ccc(S(=O)(=O)N2CCN(CC(C)C)C(c3cc4cnn(-c5ccc(F)cc5)c4cc3C)C2)cn1 (single isomer, unassigned)", "category_label": "y"}
{"compound": "Cc1cc2c(cnn2-c2ccc(F)cc2)cc1C1CN(S(=O)(=O)c2cnn(C)n2)CCN1CC1CC(F)(F)C1 (single isomer, unassigned) [Example 76]", "category_label": "y"}
{"compound": "Cc1cc2c(cnn2-c2ccc(F)cc2)cc1C1CN(S(=O)(=O)c2ccc(C#N)nc2)CCN1CC(C)C (single isomer, unassigned)", "category_label": "y"}
{"compound": "Cc1cc2c(cnn2-c2ccc(F)cc2)cc1C1CN(S(=O)(=O)c2ccc(C(F)(F)F)nc2)CCN1CC(C)C (single isomer, unassigned)", "category_label": "y"}
{"compound": "Cc1cc2c(cnn2-c2ccc(F)cc2)cc1C1CN(S(=O)(=O)c2cnn(C)n2)CCN1CC1CNC(=O)C1 (single isomer, unassigned)", "category_label": "n"}
{"compound": "Cc1cc2c(cnn2-c2ccc(F)cc2)cc1[C@@H]1CN(S(=O)(=O)c2cnn(C)n2)CCN1CC(C)C(F)(F)F (single isomer, unassigned)", "category_label": "y"}
{"compound": "Cc1cc2c(cnn2-c2ccc(F)cc2)cc1C1CN(C(=O)C(C)O)CCN1CC(C)C (stereo not shown)", "category_label": "n"}
{"compound": "Cc1cc2c(cnn2-c2ccc(F)cc2)cc1C1CN(S(=O)(=O)c2cccnc2C(F)(F)F)CCN1CC(C)C (single isomer, unassigned)", "category_label": "y"}
{"compound": "Cc1cc2c(cnn2-c2ccc(F)cc2)cc1C1CN(S(=O)(=O)c2cnn(C)n2)C(C)CN1CC(C)C (stereo not shown)", "category_label": "y"}
{"compound": "Cc1cc2c(cnn2-c2ccc(F)cc2)cc1C1CN(S(=O)(=O)c2cnn(C)n2)CCN1Cc1cccnc1 (stereo not shown)", "category_label": "n"}
{"compound": "Cc1cc2c(cnn2-c2ccc(F)cc2)cc1C1CN(S(=O)(=O)c2cnn(C)n2)CCN1CC(C)(C)C (single isomer, unassigned)", "category_label": "y"}
{"compound": "Cc1ncc(S(=O)(=O)N2CCN(CCC(F)(F)F)C(c3cc4cnn(-c5ccc(F)cc5)c4cc3C)C2)s1 (single isomer, unassigned)", "category_label": "y"}
{"compound": "Cc1nc(S(=O)(=O)N2CCN(CC(C)C(F)(F)F)C(c3cc4cnn(-c5ccc(F)cc5)c4cc3C)C2)cs1 (single isomer, unassigned)", "category_label": "y"}
{"compound": "Cc1cc2c(cnn2-c2cccnc2)cc1C1CN(S(=O)(=O)c2cnn(C)n2)CCN1CCC(F)(F)F (stereo not shown)", "category_label": "y"}
{"compound": "CCn1cc(S(=O)(=O)N2CCN(CC(C)C)C(c3cc4cnn(-c5ccc(F)cc5)c4cc3C)C2)cn1 (single isomer, unassigned) [Example 55]", "category_label": "y"}
